Origin of values: patent US20140179664A1

Molecular target: JAK1 (Homo sapiens)
Construct: endogenous in cells; host or cells: Molt4 (ATCC CRL-1582) and Ramos (ATCC CRL-1596), mixed lysate 1:2
Sequence (P23458 whole entry): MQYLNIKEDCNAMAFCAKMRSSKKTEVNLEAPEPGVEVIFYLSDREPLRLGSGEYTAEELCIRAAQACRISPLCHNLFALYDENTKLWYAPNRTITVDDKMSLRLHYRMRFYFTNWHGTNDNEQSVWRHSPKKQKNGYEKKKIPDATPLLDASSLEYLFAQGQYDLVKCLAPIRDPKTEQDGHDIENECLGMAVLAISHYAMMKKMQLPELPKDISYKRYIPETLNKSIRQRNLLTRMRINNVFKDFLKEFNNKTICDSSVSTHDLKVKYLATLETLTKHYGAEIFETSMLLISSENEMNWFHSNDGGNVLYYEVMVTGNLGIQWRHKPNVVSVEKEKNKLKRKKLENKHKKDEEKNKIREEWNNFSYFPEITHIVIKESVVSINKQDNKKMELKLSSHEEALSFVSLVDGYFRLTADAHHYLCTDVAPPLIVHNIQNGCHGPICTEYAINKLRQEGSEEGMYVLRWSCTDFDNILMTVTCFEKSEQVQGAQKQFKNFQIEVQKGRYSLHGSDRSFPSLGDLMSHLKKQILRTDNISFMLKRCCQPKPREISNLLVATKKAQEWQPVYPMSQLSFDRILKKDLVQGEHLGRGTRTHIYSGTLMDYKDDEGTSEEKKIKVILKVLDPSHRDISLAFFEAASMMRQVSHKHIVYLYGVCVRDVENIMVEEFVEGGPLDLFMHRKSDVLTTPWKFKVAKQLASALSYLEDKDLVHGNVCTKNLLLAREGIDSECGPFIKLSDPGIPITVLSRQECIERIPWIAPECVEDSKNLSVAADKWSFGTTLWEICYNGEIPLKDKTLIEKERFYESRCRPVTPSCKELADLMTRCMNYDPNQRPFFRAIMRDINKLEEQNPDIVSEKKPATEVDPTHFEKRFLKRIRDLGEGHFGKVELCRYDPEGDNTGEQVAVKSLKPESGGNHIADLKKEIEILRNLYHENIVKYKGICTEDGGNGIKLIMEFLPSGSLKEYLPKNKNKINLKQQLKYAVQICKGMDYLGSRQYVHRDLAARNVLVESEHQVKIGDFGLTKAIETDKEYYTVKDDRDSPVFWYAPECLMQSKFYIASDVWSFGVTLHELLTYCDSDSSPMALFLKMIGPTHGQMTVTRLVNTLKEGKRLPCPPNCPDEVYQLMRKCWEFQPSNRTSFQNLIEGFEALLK
Assay: Kinobeads assay, JAK1
Assay type: binding
Conditions: mixed Molt4/Ramos lysate, read-out: Inhibition values (IC50) JAK1
pIC50: −log10 of the molar value.
PROPERTY_LABEL: pIC50

{"columns": ["COMPOUND", "EXPERIMENTAL_RESULT"],
 "data": [
  ["OCCn1cc(Nc2ncc(F)c(N[C@H](CO)c3ccccc3)n2)cn1", "5.00 to 6.00"],
  ["Cc1cnc(Nc2cnn(CC(=O)N(C)C)c2)nc1N[C@H](CO)c1ccccc1", "6.00 to 7.00"],
  ["Cn1cc(Nc2ncc(Cl)c(NC(CO)c3cccc(N4CCOCC4=O)c3)n2)cn1 (centres unmarked)", "5.00 to 6.00"],
  ["OC[C@@H](Nc1nc(Nc2cn[nH]c2)ncc1Cl)c1ccccc1F", "6.00 to 7.00"],
  ["CNC(=O)Cn1cc(Nc2ncc(Cl)c(N[C@H](CO)c3cccnc3)n2)cn1", "5.00 to 6.00"]
]}

###

Target: TYK2 (Homo sapiens, UniProt P29597)
Construct: endogenous in cells
Sequence (P29597 whole entry): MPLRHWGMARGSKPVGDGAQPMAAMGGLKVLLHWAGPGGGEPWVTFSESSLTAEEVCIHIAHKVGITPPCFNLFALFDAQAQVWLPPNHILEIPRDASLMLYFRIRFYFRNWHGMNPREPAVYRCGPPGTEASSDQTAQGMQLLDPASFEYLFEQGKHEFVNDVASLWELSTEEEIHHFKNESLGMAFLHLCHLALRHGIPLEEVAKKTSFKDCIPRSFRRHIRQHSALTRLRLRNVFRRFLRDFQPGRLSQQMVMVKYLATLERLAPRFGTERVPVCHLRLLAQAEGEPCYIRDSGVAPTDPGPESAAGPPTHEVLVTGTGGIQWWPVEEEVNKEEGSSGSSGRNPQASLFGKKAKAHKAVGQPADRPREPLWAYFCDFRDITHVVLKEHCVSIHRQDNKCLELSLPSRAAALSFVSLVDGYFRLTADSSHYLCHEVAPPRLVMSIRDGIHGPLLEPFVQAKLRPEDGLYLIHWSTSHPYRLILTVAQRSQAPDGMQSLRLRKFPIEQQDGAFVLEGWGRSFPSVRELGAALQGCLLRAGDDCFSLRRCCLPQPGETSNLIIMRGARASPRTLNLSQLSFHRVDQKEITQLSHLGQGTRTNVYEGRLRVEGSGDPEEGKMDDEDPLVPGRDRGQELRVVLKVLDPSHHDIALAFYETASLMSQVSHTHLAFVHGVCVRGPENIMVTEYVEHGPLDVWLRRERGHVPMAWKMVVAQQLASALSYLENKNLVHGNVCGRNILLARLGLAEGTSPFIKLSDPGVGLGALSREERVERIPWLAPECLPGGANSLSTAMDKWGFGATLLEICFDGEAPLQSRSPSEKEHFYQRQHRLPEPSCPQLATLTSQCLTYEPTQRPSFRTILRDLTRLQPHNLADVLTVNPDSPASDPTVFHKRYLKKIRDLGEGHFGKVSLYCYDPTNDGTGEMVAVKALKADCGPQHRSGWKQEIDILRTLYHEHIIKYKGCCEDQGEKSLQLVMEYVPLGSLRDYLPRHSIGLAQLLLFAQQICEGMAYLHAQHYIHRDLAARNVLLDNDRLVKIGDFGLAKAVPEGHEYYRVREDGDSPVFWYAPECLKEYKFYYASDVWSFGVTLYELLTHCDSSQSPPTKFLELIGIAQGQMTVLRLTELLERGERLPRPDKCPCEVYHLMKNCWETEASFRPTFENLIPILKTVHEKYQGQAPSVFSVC
Assay: Kinobeads assay, TYK2
Conditions: mixed Molt4/Ramos lysate, read-out: Inhibition values (IC50) TYK2
PROPERTY_LABEL: IC50

{"columns": ["CHEMICAL_SMILES", "EXPERIMENTAL_RESULT"],
 "data": [
  ["COc1cccc([C@@H](CO)Nc2nc(Nc3cnn(CC(=O)N4CCOCC4)c3)ncc2Cl)c1", "100 to 1000 nM"],
  ["Cn1cc(-c2cc(F)cc([C@@H](CO)Nc3nc(Nc4cnn(CCO)c4)ncc3Cl)c2)cn1", "1000 to 10000 nM"],
  ["COc1ccccc1[C@@H](CO)Nc1nc(Nc2cnn(CC(=O)N3CCOCC3)c2)ncc1Cl", "< 100 nM"],
  ["CC(C)OC(=O)Cn1cc(Nc2ncc(Cl)c(N[C@H](CO)c3ccccc3)n2)cn1", "100 to 1000 nM"]
]}

###

Biological target: JAK2 (Homo sapiens)
Construct: endogenous in cells
Sequence (O60674 whole entry): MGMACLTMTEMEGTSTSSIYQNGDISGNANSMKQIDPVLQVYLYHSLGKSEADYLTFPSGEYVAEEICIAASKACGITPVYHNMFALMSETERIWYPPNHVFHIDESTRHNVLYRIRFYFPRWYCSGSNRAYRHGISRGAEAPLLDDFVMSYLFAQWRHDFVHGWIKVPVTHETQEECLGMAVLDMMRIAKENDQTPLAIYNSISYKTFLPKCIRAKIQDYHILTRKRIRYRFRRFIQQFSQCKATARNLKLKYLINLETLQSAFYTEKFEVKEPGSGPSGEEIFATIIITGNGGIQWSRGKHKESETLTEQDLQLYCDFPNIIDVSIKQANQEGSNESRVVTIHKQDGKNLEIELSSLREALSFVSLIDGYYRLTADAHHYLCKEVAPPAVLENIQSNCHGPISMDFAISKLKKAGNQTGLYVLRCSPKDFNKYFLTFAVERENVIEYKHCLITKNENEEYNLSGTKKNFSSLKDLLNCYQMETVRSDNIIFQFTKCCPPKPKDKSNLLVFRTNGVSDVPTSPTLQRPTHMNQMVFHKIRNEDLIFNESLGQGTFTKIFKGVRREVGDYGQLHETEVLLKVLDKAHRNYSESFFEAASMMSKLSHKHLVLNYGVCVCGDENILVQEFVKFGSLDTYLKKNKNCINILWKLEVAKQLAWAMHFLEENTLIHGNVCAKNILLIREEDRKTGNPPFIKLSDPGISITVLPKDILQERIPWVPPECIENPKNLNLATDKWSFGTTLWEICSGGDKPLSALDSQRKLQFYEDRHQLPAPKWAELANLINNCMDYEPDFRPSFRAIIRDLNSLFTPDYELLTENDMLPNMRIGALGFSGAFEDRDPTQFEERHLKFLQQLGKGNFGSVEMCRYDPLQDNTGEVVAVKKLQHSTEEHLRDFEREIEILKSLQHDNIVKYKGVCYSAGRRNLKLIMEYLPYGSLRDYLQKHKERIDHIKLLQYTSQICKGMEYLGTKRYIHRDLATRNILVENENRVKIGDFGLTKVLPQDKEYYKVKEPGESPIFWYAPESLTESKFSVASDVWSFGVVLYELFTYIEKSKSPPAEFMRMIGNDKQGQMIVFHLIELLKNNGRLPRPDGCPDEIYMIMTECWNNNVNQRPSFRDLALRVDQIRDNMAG
Assay: Kinobeads assay, JAK2
Settings: mixed Molt4/Ramos lysate, read-out: Inhibition values (IC50) JAK2
Documented IC50 across a set of compounds

{"columns": ["COMPOUND", "IC50"],
 "data": [
  ["Cn1cc(Nc2ncc(Cl)c(N[C@H](C(=O)N3CCCCC3)c3ccccc3)n2)cn1", "≥ 10 µM"],
  ["OC[C@@H](Nc1nc(Nc2cn[nH]c2)ncc1Cl)c1ccccc1F", "1 to 10 µM"],
  ["OCCn1cc(Nc2ncc(Cl)c(N[C@H](CO)c3ccccn3)n2)cn1", "1 to 10 µM"],
  ["CC(C)(O)Cn1cc(Nc2ncc(Cl)c(NC(CO)c3ccccc3F)n2)cn1 (centres unmarked)", "≥ 10 µM"],
  ["NC(=O)Cn1cc(Nc2ncc(Cl)c(NC(CO)c3ccccc3Cl)n2)cn1 (centres unmarked)", "1 to 10 µM"]
]}

###

Molecular target: JAK3 (Homo sapiens, UniProt P52333)
Construct: endogenous in cells
Sequence (P52333 whole entry): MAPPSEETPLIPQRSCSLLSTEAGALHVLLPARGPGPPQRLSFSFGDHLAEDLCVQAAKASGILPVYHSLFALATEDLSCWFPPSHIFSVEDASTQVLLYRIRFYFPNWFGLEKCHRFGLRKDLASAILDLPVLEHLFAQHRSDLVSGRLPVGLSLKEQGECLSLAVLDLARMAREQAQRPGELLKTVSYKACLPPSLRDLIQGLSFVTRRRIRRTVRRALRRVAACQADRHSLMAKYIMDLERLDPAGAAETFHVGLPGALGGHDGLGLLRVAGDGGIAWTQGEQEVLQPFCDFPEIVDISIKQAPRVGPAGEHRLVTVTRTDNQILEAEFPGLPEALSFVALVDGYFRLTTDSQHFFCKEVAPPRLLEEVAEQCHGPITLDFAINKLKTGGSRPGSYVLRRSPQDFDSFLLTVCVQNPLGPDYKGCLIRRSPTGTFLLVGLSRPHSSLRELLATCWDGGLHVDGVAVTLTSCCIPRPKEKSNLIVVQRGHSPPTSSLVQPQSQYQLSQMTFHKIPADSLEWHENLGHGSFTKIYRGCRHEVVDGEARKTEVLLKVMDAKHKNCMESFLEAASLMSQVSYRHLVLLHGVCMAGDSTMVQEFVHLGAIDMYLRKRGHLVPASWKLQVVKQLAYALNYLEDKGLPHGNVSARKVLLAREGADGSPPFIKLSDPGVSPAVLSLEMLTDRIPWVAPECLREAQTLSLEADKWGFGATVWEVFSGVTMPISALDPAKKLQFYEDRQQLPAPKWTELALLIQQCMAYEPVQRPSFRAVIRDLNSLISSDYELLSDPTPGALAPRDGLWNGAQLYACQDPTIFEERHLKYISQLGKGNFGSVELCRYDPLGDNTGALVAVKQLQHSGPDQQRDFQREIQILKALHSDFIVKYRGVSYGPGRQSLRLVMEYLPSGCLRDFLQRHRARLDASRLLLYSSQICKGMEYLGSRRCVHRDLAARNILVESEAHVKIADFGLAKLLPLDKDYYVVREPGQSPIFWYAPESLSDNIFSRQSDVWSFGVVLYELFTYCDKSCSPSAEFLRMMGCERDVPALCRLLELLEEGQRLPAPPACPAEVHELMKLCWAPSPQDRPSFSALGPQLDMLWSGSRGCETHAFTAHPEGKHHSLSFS
Test: Kinobeads assay, JAK3
Settings: mixed Molt4/Ramos lysate, read-out: Inhibition values (IC50) JAK3
pIC50: −log10 of the molar value.

{"columns": ["COMPOUND", "pIC50"],
 "data": [
  ["Cn1cc(Nc2ncc(Cl)c(N[C@H](CO)c3cc(F)cc(-c4cnn(C)c4)c3)n2)cn1", "6.00 to 7.00"],
  ["Cn1cc(Nc2ncc(Cl)c(N[C@H](CO)c3cccc(-c4cnn(C)c4)c3)n2)cn1", "6.00 to 7.00"],
  ["CNC(=O)Cn1cc(Nc2ncc(Cl)c(N[C@H](CO)c3cc(F)ccc3F)n2)cn1", "> 7.00"],
  ["O=C(NC1CCCC1)[C@@H](Nc1nc(Nc2cnn(CCO)c2)ncc1Cl)c1ccccc1", "6.00 to 7.00"],
  ["CC(C)(O)Cn1cc(Nc2ncc(Cl)c(NC(CO)c3cccc(F)c3)n2)cn1 (centres unmarked)", "> 7.00"],
  ["CN1CCC(n2cc(Nc3ncc(Cl)c(N[C@H](CO)c4ccccc4)n3)cn2)C1=O (some centres unmarked)", "> 7.00"],
  ["Cc1cnc(Nc2cnn(CC(F)F)c2)nc1N[C@H](CO)c1cc(F)ccc1F", "6.00 to 7.00"],
  ["COCCNC(=O)[C@@H](Nc1nc(Nc2cnn(CCO)c2)ncc1Cl)c1ccccc1", "> 7.00"]
]}

###

Molecular target: JAK2 (Homo sapiens)
Construct: endogenous in cells
Test: Kinobeads assay, JAK2
Settings: mixed Molt4/Ramos lysate, read-out: Inhibition values (IC50) JAK2
pIC50: −log10 of the molar value.
Listed molecules paired with reported pIC50
PROPERTY_LABEL: pIC50

{"columns": ["MOLECULE", "EXPERIMENTAL_RESULT"],
 "data": [
  ["Cn1cc(Nc2ncc(Cl)c(NC(C)(CO)c3ccccc3)n2)cn1 (centres unmarked)", "≤ 5.00"],
  ["Cn1cc(Nc2ncc(Cl)c(NC(CO)c3ccccc3F)n2)cn1 (centres unmarked)", "5.00 to 6.00"],
  ["OCCn1cc(Nc2ncc(Cl)c(N[C@H](CO)c3ccccc3)n2)cn1", "5.00 to 6.00"],
  ["CCC(Nc1nc(Nc2cnn(C)c2)ncc1Cl)c1ccccc1F (centres unmarked)", "5.00 to 6.00"],
  ["C[C@@H](CO)NC(=O)Cn1cc(Nc2ncc(Cl)c(N[C@H](CO)c3ccccc3F)n2)cn1", "5.00 to 6.00"]
]}

###

Here the recorded pIC50 is given for each entry.
Molecular target: JAK1 (Homo sapiens)
Construct: endogenous in cells; host or cells: Molt4 (ATCC CRL-1582) and Ramos (ATCC CRL-1596), mixed lysate 1:2
Experiment: Kinobeads assay, JAK1
Type: binding
Details: mixed Molt4/Ramos lysate, read-out: Inhibition values (IC50) JAK1
pIC50: −log10 of the molar value.
PROPERTY_LABEL: pIC50

{"columns": ["COMPOUND", "EXPERIMENTAL_RESULT"],
 "data": [
  ["COc1cccc([C@@H](CO)Nc2nc(Nc3cnn(C)c3)ncc2Cl)c1 [Compound 82]", "5.00 to 6.00"],
  ["Cn1cc(Nc2ncc(Cl)c(NC(CO)c3cc(F)ccc3F)n2)cn1 (centres unmarked) [Compound 129]", "6.00 to 7.00"],
  ["CCn1cc(Nc2ncc(Cl)c(N[C@H](CO)c3ccccc3F)n2)cn1 [Compound 109]", "5.00 to 6.00"],
  ["Cc1cnc(Nc2cnn(CCO)c2)nc1NC(CO)c1ccccc1 (centres unmarked) [Compound 12]", "5.00 to 6.00"],
  ["CC(C)n1cc(Nc2ncc(Cl)c(N[C@H](CO)c3cccnc3)n2)cn1 [Compound 107]", "5.00 to 6.00"]
]}

###

Molecular target: JAK3 (Homo sapiens)
Construct: endogenous in cells
Assay: Kinobeads assay, JAK3
Conditions: mixed Molt4/Ramos lysate, read-out: Inhibition values (IC50) JAK3

{"columns": ["CHEMICAL_SMILES", "TARGET_DESC", "IC50"],
 "data": [
  ["O=C(Cn1cc(Nc2ncc(Cl)c(N[C@H](CO)c3ccccc3)n2)cn1)NC1CC1", "JAK3 (Homo sapiens)", "< 100 nM"],
  ["O=C([C@@H](Nc1nc(Nc2cnn(CCO)c2)ncc1Cl)c1ccccc1)N1CCCCC1", "JAK3 (Homo sapiens)", "100 to 1000 nM"],
  ["Cc1cnc(Nc2cnn(C)c2)nc1N[C@H](CO)c1cc(F)cc(F)c1", "JAK3 (Homo sapiens)", "100 to 1000 nM"],
  ["Cn1cc(Nc2ncc(Cl)c(N[C@H](CO)c3cc(F)ccc3F)n2)cn1", "JAK3 (Homo sapiens)", "< 100 nM"],
  ["Cn1cc(Nc2ncc(Cl)c(N[C@H](C(=O)N3CCCCC3)c3ccccc3)n2)cn1", "JAK3 (Homo sapiens)", "100 to 1000 nM"]
]}

###

Molecular target: JAK1 (Homo sapiens)
Construct: endogenous in cells
Test: Kinobeads assay, JAK1
Settings: mixed Molt4/Ramos lysate, read-out: Inhibition values (IC50) JAK1
pIC50: −log10 of the molar value.
PROPERTY_LABEL: pIC50

{"columns": ["MOLECULE", "PROPERTY_LABEL", "EXPERIMENTAL_RESULT"],
 "data": [
  ["Cc1cnc(Nc2cnn(C)c2)nc1N[C@H](CO)c1cc(F)ccc1F", "pIC50", "6.00 to 7.00"],
  ["CNC(=O)[C@@H](Nc1nc(Nc2cnn(C)c2)ncc1Cl)c1ccccc1", "pIC50", "5.00 to 6.00"],
  ["Cn1cc(Nc2ncc(Cl)c(NC(CO)c3cccc(N4CC5(COC5)C4)c3)n2)cn1 (centres unmarked)", "pIC50", "< 5.00"],
  ["COc1cccc([C@@H](CO)Nc2nc(Nc3cnn(C(C)C)c3)ncc2Cl)c1", "pIC50", "< 5.00"],
  ["NC(=O)Cn1cc(Nc2ncc(Cl)c(N[C@H](CO)c3ccccc3F)n2)cn1", "pIC50", "> 7.00"],
  ["CNC(=O)Cn1cc(Nc2ncc(Cl)c(NC(CO)c3cccc(F)c3)n2)cn1 (centres unmarked)", "pIC50", "5.00 to 6.00"],
  ["OCCCn1cc(Nc2ncc(Cl)c(NC(CO)c3ccccc3F)n2)cn1 (centres unmarked)", "pIC50", "5.00 to 6.00"],
  ["OCCn1ccc(Nc2ncc(Cl)c(NC(CO)c3c(F)cccc3F)n2)n1 (centres unmarked)", "pIC50", "< 5.00"],
  ["O=C(NC1CCCC1)[C@@H](Nc1nc(Nc2cnn(CCO)c2)ncc1Cl)c1ccccc1", "pIC50", "5.00 to 6.00"],
  ["CNC(=O)Cn1cc(Nc2ncc(F)c(N[C@H](CO)c3cc(F)cc(-c4cnn(C)c4)c3)n2)cn1", "pIC50", "5.00 to 6.00"],
  ["Cn1cc(Nc2ncc(Cl)c(NC(CO)c3ccccc3F)n2)cn1 (centres unmarked)", "pIC50", "5.00 to 6.00"],
  ["NC(=O)Cn1cc(Nc2ncc(Cl)c(N[C@H](CO)c3cc(F)ccc3F)n2)cn1", "pIC50", "> 7.00"],
  ["CNC(=O)Cn1cc(Nc2ncc(Cl)c(N[C@H](CO)c3cc(F)cc(F)c3)n2)cn1", "pIC50", "> 7.00"],
  ["Cn1cc(Nc2ncc(Cl)c(N[C@H](C(=O)N3CCCCC3)c3ccccc3)n2)cn1", "pIC50", "5.00 to 6.00"],
  ["CN(C)CCCNC(=O)Cn1cc(Nc2ncc(Cl)c(N[C@H](CO)c3ccccc3)n2)cn1", "pIC50", "6.00 to 7.00"],
  ["OCCn1cc(Nc2ncc(F)c(N[C@H](CO)c3cc(F)ccc3F)n2)cn1", "pIC50", "6.00 to 7.00"],
  ["CNC(=O)Cn1cc(Nc2ncc(F)c(N[C@H](CO)c3cc(F)ccc3F)n2)cn1", "pIC50", "6.00 to 7.00"]
]}
